Biological target: EGFR L858R/T790M/C797S (Homo sapiens, UniProt P00533, C797S/L858R/T790M)
Sequence (P00533 25-1210 T790M/C797S/L858R): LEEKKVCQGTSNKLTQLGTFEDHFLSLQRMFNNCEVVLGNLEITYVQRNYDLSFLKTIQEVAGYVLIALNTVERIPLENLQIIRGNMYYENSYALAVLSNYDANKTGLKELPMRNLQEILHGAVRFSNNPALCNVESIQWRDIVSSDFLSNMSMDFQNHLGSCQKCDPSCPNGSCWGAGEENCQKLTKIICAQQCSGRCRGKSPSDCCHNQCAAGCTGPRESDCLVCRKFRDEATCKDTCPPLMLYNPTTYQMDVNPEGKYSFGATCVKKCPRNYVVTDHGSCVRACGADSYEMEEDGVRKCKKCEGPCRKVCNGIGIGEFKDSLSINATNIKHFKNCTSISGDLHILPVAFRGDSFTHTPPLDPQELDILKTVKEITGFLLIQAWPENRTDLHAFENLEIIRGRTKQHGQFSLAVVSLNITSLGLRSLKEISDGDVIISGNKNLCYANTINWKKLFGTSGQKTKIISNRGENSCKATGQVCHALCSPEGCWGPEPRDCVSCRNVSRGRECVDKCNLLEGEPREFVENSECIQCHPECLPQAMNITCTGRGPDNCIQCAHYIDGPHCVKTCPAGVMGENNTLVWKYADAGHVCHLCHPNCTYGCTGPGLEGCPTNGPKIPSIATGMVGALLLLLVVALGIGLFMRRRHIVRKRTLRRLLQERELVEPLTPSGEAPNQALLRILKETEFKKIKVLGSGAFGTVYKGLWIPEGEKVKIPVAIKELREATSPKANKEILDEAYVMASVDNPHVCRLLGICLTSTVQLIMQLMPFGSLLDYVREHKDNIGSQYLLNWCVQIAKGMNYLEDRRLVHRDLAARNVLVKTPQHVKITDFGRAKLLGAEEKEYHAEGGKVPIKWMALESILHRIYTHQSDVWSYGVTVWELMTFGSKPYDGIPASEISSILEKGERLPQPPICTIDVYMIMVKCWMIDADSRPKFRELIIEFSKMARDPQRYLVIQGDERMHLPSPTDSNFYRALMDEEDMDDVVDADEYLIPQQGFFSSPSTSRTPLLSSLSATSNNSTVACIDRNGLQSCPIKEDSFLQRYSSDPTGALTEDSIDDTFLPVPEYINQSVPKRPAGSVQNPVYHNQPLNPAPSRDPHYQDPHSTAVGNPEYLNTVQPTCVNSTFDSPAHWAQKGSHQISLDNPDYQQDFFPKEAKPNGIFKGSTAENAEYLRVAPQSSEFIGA
Experiment: Biochemical EGFR kinase inhibition assay (Lance Ultra TR-FRET), triple mutant L858R/T790M/C797S
Conditions: IC50 L858R/T790M/C797S (nM), 100 μM ATP
measurementType: IC50 (nM)

A = CN1CCN(Cc2ccc(C#Cc3cnc(Nc4ccnc(-c5cnn(S(=O)(=O)C6CC6)c5)n4)cc3N3CCC(C)(O)CC3)cc2)CC1 [Example 368]
B = C[C@]1(O)CCCN(c2cc(Nc3ccnc(-c4cnn(S(=O)(=O)C5CC5)c4)n3)ncc2C#Cc2cnn(CCF)c2)C1 [Example 447]
Could you kindly indicate whether A or B has the higher IC50 value? Your choice should be expressed through its label.
B
(B: 0.5 nM, A: 0.2 nM)
